System: JAK2 (Homo sapiens (Human), UniProt O60674)
Sequence (O60674 849-1124): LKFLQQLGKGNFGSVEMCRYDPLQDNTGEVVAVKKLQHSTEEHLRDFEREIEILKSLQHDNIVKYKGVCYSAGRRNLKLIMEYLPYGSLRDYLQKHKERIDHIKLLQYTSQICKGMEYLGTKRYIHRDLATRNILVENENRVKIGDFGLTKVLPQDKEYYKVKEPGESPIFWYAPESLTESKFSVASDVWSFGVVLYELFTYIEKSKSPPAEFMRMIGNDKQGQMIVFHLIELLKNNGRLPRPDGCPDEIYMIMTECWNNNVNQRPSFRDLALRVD
Assay details: JAK Caliper Enzyme Assay at 1 mM ATP, JAK2
Assay type: biochemical
Mark each entry Condition met if its IC50 sits below 500 nM, and Condition not met for all others.

record_smiles=CC(C)(O)[C@H]1C[C@@](CC#N)(n2ccc(-c3nc(-c4cc[nH]n4)cc4ncccc34)n2)C1 group="Condition not met"
record_smiles=CS(=O)(=O)N1CC(CC#N)(n2ncc(-c3nc(-c4cc[nH]n4)cc4ncccc34)n2)C1 group="Condition met"
record_smiles=CC(=O)N1CC2(C1)CC(CC#N)(n1ccc(-c3nc(-c4cc[nH]n4)cc4ncccc34)n1)C2 group="Condition not met"
record_smiles=Cc1onc(N)c1-c1cc2ncccc2c(-c2ccn(C3(CC#N)CN(S(C)(=O)=O)C3)n2)n1 group="Condition not met"
record_smiles=CCOC(=O)Nc1cncc(-c2cc3ncccc3c(-c3ccn(C4(CC#N)CN(S(C)(=O)=O)C4)n3)n2)c1 group="Condition not met"
record_smiles=Cn1ccc(-c2cc(-c3cnn(C4(CC#N)CN(S(C)(=O)=O)C4)n3)c3cccnc3c2)n1 group="Condition met"

* * *

In this section we review reported IC50 values for a set of molecules.
System: UniProt:O60674
Assay details: JAK Caliper Enzyme Assay at 1 mM ATP, JAK2
Type: biochemical
Conditions used: JAK Caliper enzyme assay
Parameter measured: IC50 (nM)

record_smiles=N#CC[C@]1(n2ncc(-c3cc(-c4cnc(N)cn4)cc4ncccc34)n2)C[C@@H](C#N)C1 parameter_measured=IC50 test_result=1040
record_smiles=CS(=O)(=O)N1CC(CC#N)(n2ncc(-c3cc(-c4cc(O)cc(F)c4)cc4ncccc34)n2)C1 parameter_measured=IC50 test_result=6460
record_smiles=Cc1nc2ccc(-c3cc(-c4cnn([C@]5(CC#N)C[C@H](C#N)C5)n4)c4cccnc4c3)nc2[nH]1 parameter_measured=IC50 test_result=82
record_smiles=N#CC[C@]1(n2cc(-c3cc(-c4cc[nH]n4)cc4nccn34)cn2)C[C@H](C#N)C1 parameter_measured=IC50 test_result=5680
record_smiles=CS(=O)(=O)N1CC(CC#N)(n2ncc(-c3cc(-c4ccc5c(c4)C(=O)NC5)cc4ncccc34)n2)C1 parameter_measured=IC50 test_result=2680
record_smiles=CS(=O)(=O)N1CC(CC#N)(n2ncc(-c3cc(-c4cccc(CO)c4)cc4ncccc34)n2)C1 parameter_measured=IC50 test_result=1120
record_smiles=N#CC[C@]1(n2ncc(-c3cc(-c4cncc(N)n4)cc4ncccc34)n2)C[C@@H](C#N)C1 parameter_measured=IC50 test_result=1480
record_smiles=CS(=O)(=O)N1CC(CC#N)(n2cnc(-c3cc(-c4ccc(=O)[nH]c4)cc4ncccc34)n2)C1 parameter_measured=IC50 test_result=7160
record_smiles=Cc1cc(-c2cc(-c3cnn([C@]4(CC#N)C[C@H](C#N)C4)c3)n3ccnc3c2)n[nH]1 parameter_measured=IC50 test_result=188

* * *

System: TYK2 (Homo sapiens (Human), UniProt P29597)
Sequence (P29597 897-1176): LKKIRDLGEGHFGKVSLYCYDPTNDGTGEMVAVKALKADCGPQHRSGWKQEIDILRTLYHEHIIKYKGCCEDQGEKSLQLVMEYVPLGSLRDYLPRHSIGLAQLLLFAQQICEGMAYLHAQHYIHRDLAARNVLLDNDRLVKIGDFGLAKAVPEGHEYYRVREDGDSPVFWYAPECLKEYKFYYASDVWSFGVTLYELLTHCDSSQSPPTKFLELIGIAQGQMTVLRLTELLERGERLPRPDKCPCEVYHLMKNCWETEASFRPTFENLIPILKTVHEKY
Assay details: JAK Caliper Enzyme Assay at 1 mM ATP, TYK2
Type: biochemical
Mark each entry t if its IC50 sits below 40 nM, and f for all others.

record_smiles=N#CC[C@]1(n2ncc(-c3cc(-c4cnc(CO)s4)cc4ncccc34)n2)C[C@H](C#N)C1 system="TYK2 (Homo sapiens (Human), UniProt P29597)" group=f
record_smiles=N#CC[C@]1(n2ccc(-c3nc(-c4cnn(CCO)c4)cc4ncccc34)n2)C[C@@H](C#N)C1 system="TYK2 (Homo sapiens (Human), UniProt P29597)" group=t
record_smiles=N#CCN1CC(CC#N)(n2ccc(-c3nc(-c4cnn(C5COC5)c4)cc4ncccc34)n2)C1 system="TYK2 (Homo sapiens (Human), UniProt P29597)" group=t
record_smiles=CS(=O)(=O)N1CC(CC#N)(n2ccc(-c3nc(-c4ccc(=O)[nH]c4)cc4ncccc34)n2)C1 system="TYK2 (Homo sapiens (Human), UniProt P29597)" group=t
record_smiles=CS(=O)(=O)N1CC(CC#N)(n2ccc(-c3nc(-c4ccn5ccnc5c4)cc4ncccc34)n2)C1 system="TYK2 (Homo sapiens (Human), UniProt P29597)" group=f
record_smiles=N#CC[C@]1(n2ncc(-c3cc(-c4cccnc4N)cc4ncccc34)n2)C[C@@H](C#N)C1 system="TYK2 (Homo sapiens (Human), UniProt P29597)" group=f
record_smiles=CS(=O)(=O)N1CC(CC#N)(n2ccc(-c3nc(-c4ccccc4CO)cc4ncccc34)n2)C1 system="TYK2 (Homo sapiens (Human), UniProt P29597)" group=f
